Experiment: Emission spectra of the dyes in DCM
Format: physicochemical
Settings: dichloromethane; dyes 1, 3-6 and reference dyes
Is emission (DCM) λmax at least 800 nm? Then 1. If not, 0.

INSERT INTO assay_data (compound, group) VALUES
  ('ClC1=C(/C=C/c2cc(-c3ccccc3)[s+]c(-c3ccccc3)c2)CCC/C1=C/C=C1C=C(c2ccccc2)SC(c2ccccc2)=C1.F[B-](F)(F)F [IR-1061, reference compound]', 1),
  ('CN(C)c1ccc2c(c1)OC(c1ccccc1)=C\C2=C/C=C/C=C/c1cc(-c2ccccc2)[o+]c2cc(N(C)C)ccc12.[O-][Cl+3]([O-])([O-])[O-] [Dye 4]', 1),
  ('CN(C)c1ccc2c(c1)OC(c1ccccc1)=C/C2=C\c1cc(-c2ccccc2)[o+]c2cc(N(C)C)ccc12.O=C([O-])C(F)(F)F [Dye 6]', 0),
  ('CN(C)c1ccc2c(c1)OC(c1ccccc1)=C/C2=C\C=C1/CCCC(/C=C/c2cc(-c3ccccc3)[o+]c3cc(N(C)C)ccc23)=C1Cl.[O-][Cl+3]([O-])([O-])[O-] [Dye 3]', 1),
  ('CN(C)c1ccc2c(c1)OC(c1ccccc1)=C/C2=C\C=C\c1cc(-c2ccccc2)[o+]c2cc(N(C)C)ccc12.[O-][Cl+3]([O-])([O-])[O-] [Dye 5]', 0),
  ('Cc1cc(-c2ccccc2)[o+]c2cc(N(C)C)ccc12 [Dye 1]', 0);

----------
Measured QE, εΦF (quantum efficiency), listed per entry.
Test: Absolute fluorescence quantum yield using an integrating sphere
Type: physicochemical
Details: dichloromethane
reportedEndpoint: QE, εΦF (quantum efficiency) (M⁻¹ cm⁻¹)

INSERT INTO results (compound, reportedendpoint, quantityunit, reportedvalue) VALUES
  ('CN(C)c1ccc2c(c1)OC(c1ccccc1)=C\C2=C/C=C/C=C/c1cc(-c2ccccc2)[o+]c2cc(N(C)C)ccc12.[O-][Cl+3]([O-])([O-])[O-] [Dye 4]', 'QE, εΦF (quantum efficiency)', 'M⁻¹ cm⁻¹', 10000),
  ('CN(C)c1ccc2c(c1)OC(c1ccccc1)=C/C2=C\C=C1/CCCC(/C=C/c2cc(-c3ccccc3)[o+]c3cc(N(C)C)ccc23)=C1Cl.[O-][Cl+3]([O-])([O-])[O-] [Dye 3]', 'QE, εΦF (quantum efficiency)', 'M⁻¹ cm⁻¹', 1200),
  ('CN(C)c1ccc2c(c1)OC(c1ccccc1)=C/C2=C\C=C\c1cc(-c2ccccc2)[o+]c2cc(N(C)C)ccc12.[O-][Cl+3]([O-])([O-])[O-] [Dye 5]', 'QE, εΦF (quantum efficiency)', 'M⁻¹ cm⁻¹', 6600),
  ('CN(C)c1ccc2c(c1)OC(c1ccccc1)=C/C2=C\c1cc(-c2ccccc2)[o+]c2cc(N(C)C)ccc12.O=C([O-])C(F)(F)F [Dye 6]', 'QE, εΦF (quantum efficiency)', 'M⁻¹ cm⁻¹', 100);

----------
Experiment: Absorbance spectra of the dyes in DCM (UV-Visible/NIR spectrophotometer)
Assay type: physicochemical
Details: dichloromethane; in example paragraphs the longest-wavelength absorbance peak
Please respond with label 1 when measured absorption (DCM) λmax is strictly beneath 1000 nm, and with label 0 in all other cases.

INSERT INTO measurements (molecularstring, group) VALUES
  ('ClC1=C(/C=C/c2cc(-c3ccccc3)[o+]c3cc(N(c4ccccc4)c4ccccc4)ccc23)CCC/C1=C\C=C1/C=C(c2ccccc2)Oc2cc(N(c3ccccc3)c3ccccc3)ccc21.F[B-](F)(F)F', 'label 0'),
  ('CN(C)c1ccc2c(c1)OC(c1ccccc1)=C/C2=C\C=C\c1cc(-c2ccccc2)[o+]c2cc(N(C)C)ccc12.[O-][Cl+3]([O-])([O-])[O-]', 'label 1'),
  ('CN(C)c1ccc2c(c1)OC(c1ccccc1)=C\C2=C/C=C/C=C/c1cc(-c2ccccc2)[o+]c2cc(N(C)C)ccc12.[O-][Cl+3]([O-])([O-])[O-]', 'label 1'),
  ('ClC1=C(/C=C/c2cc(-c3ccccc3)[o+]c3c4c5c(cc23)CCCN5CCC4)CCC/C1=C\C=C1/C=C(c2ccccc2)Oc2c1cc1c3c2CCCN3CCC1.F[B-](F)(F)F', 'label 0'),
  ('Cc1cc(-c2ccccc2)[o+]c2cc(N(C)C)ccc12', 'label 1'),
  ('C1=C(c2ccccc2)Oc2c(cc3c4c2CCCN4CCC3)/C1=C/C=C/C=C/c1cc(-c2ccccc2)[o+]c2c3c4c(cc12)CCCN4CCC3.F[B-](F)(F)F', 'label 1'),
  ('CN(C)c1ccc2c(c1)OC(c1ccccc1)=C/C2=C\c1cc(-c2ccccc2)[o+]c2cc(N(C)C)ccc12.O=C([O-])C(F)(F)F', 'label 1'),
  ('CCN(CC)c1ccc2c(c1)OC(c1ccccc1)=C/C2=C\C=C1/CCCC(/C=C/c2cc(-c3ccccc3)[o+]c3cc(N(CC)CC)ccc23)=C1Cl.F[B-](F)(F)F', 'label 0');
